Origin of the recorded values: the supplement of paper PMC4862054

The following molecules are shown together with reported drug sensitivity score values.
Tested on: Hs578T
experimentalProtocol: drug sensitivity score (DSS), CellTiter-Blue viability (DSS (AUC-based score)); higher = stronger viability inhibition; extreme values may be limits of the assay
experimentalParameters: incubation time: 72 h

- molecule: "CC1=C2C[C@H]3[C@@H](CC=C4C[C@@H](O)CC[C@@]43C)[C@@H]2CC[C@]12O[C@@H]1C[C@H](C)CN[C@H]1[C@H]2C [Cyclopamine]"
  targetSystem: "Hs578T"
  drug sensitivity score: 0
- molecule: "CC(=O)c1c(C)c2cnc(Nc3ccc(N4CCNCC4)cn3)nc2n(C2CCCC2)c1=O"
  targetSystem: "Hs578T"
  drug sensitivity score: 2.19
- molecule: "CC1(C)CNc2cc(NC(=O)c3cccnc3NCc3ccncc3)ccc21 [Motesanib]"
  targetSystem: "Hs578T"
  drug sensitivity score: 0
- molecule: "CC[C@@H]1C(=O)OC[C@@H]1Cc1cncn1C [Pilocarpine]"
  targetSystem: "Hs578T"
  drug sensitivity score: 0
- molecule: "COc1cc(F)c(F)c(Nc2ccc(I)cc2F)c1NS(=O)(=O)C1(C[C@H](O)CO)CC1 [RDEA119]"
  targetSystem: "Hs578T"
  drug sensitivity score: 8.25

###

Test system: MDA-MB-231
experimentalProtocol: normalised viability (% of control), CellTiter-Blue; higher = more viable cells (about 100 = DMSO control)
experimentalParameters: 1000 nM; incubation time: 72 h
The following compounds are shown together with reported normalised viability values.

- compound: "C[C@]1(O)C[C@@H](c2nc(-c3ccc4ccc(-c5ccccc5)nc4c3)c3c(N)nccn32)C1"
  normalised viability [%]: 79.7
- compound: "Oc1ncnc2[nH]ncc12"
  normalised viability [%]: 93.9
- compound: "Cc1sc2c(c1C)C(c1ccc(Cl)cc1)=N[C@@H](CC(=O)OC(C)(C)C)c1nnc(C)n1-2 [(+)JQ1]"
  normalised viability [%]: 32.8
- compound: "CC(=O)c1c(C)c2cnc(Nc3ccc(N4CCNCC4)cn3)nc2n(C2CCCC2)c1=O"
  normalised viability [%]: 57.7

###

Test system: Hs578T
experimentalProtocol: normalised response (% of control), CellTox Green; higher = less cell death (100 = DMSO, 0 = benzethonium chloride kill control)
experimentalParameters: incubation time: 72 h
The following compounds are shown together with reported normalised response values.

- compound: "Oc1ncnc2[nH]ncc12 [Allopurinol] (1000 nM)"
  normalised response: "101%"
- compound: "CC(C)(C)c1cnc(CSc2cnc(NC(=O)C3CCNCC3)s2)o1 [SNS-032] (100 nM)"
  normalised response: "60.3%"
- compound: "CC1=C2C[C@H]3[C@@H](CC=C4C[C@@H](O)CC[C@@]43C)[C@@H]2CC[C@]12O[C@@H]1C[C@H](C)CN[C@H]1[C@H]2C [Cyclopamine] (1000 nM)"
  normalised response: "104%"
- compound: "CC(=O)c1c(C)c2cnc(Nc3ccc(N4CCNCC4)cn3)nc2n(C2CCCC2)c1=O [Palbociclib] (100 nM)"
  normalised response: "104%"
- compound: "CC1(C)CNc2cc(NC(=O)c3cccnc3NCc3ccncc3)ccc21 [Motesanib] (10000 nM)"
  normalised response: "86.8%"
- compound: "CC[C@@H]1C(=O)OC[C@@H]1Cc1cncn1C [Pilocarpine] (4000 nM)"
  normalised response: "70.9%"
- compound: "CC(=O)O[C@@]12CO[C@@H]1C[C@H](O)[C@@]1(C)C(=O)[C@H](O)C3=C(C)[C@@H](OC(=O)[C@H](O)[C@@H](NC(=O)OC(C)(C)C)c4ccccc4)C[C@@](O)([C@@H](OC(=O)c4ccccc4)[C@H]21)C3(C)C [Docetaxel] (100 nM)"
  normalised response: "49.4%"

###

System: HDQ-P1
experimentalProtocol: normalised viability (% of control), CellTiter-Blue; higher = more viable cells (about 100 = DMSO control)
experimentalParameters: incubation time: 72 h

- compound: "Cc1sc2c(c1C)C(c1ccc(Cl)cc1)=N[C@@H](CC(=O)OC(C)(C)C)c1nnc(C)n1-2 [(+)JQ1] (1000 nM)"
  normalised viability (%): 106
- compound: "COc1cc(F)c(F)c(Nc2ccc(I)cc2F)c1NS(=O)(=O)C1(C[C@H](O)CO)CC1 [RDEA119] (1000 nM)"
  normalised viability (%): 40.8
- compound: "CC1(C)CNc2cc(NC(=O)c3cccnc3NCc3ccncc3)ccc21 [Motesanib] (1000 nM)"
  normalised viability (%): 78.1
- compound: "C[C@]1(O)C[C@@H](c2nc(-c3ccc4ccc(-c5ccccc5)nc4c3)c3c(N)nccn32)C1 [OSI-906] (1000 nM)"
  normalised viability (%): 55.5

###

Tested on: HDQ-P1
experimentalProtocol: normalised response (% of control), CellTox Green; higher = less cell death (100 = DMSO, 0 = benzethonium chloride kill control)
experimentalParameters: incubation time: 72 h

- molecule: "CC1(C)CCC(CN2CCN(c3ccc(C(=O)NS(=O)(=O)c4ccc(NCC5CCOCC5)c([N+](=O)[O-])c4)c(Oc4cnc5[nH]ccc5c4)c3)CC2)=C(c2ccc(Cl)cc2)C1 [ABT-199] (10000 nM)"
  normalised response, %: 98.2
- molecule: "CC1=C2C[C@H]3[C@@H](CC=C4C[C@@H](O)CC[C@@]43C)[C@@H]2CC[C@]12O[C@@H]1C[C@H](C)CN[C@H]1[C@H]2C [Cyclopamine] (100 nM)"
  normalised response, %: 68.2
- molecule: "Cn1cc(C2=Nc3cc(NC(=O)C(N)C4CCCCC4)cc4c3C2=CNNC4=O)cn1 (configuration not stated) (1000 nM)"
  normalised response, %: 97.4
- molecule: "CC(=O)N(O)CCCCCNC(=O)CCC(=O)N(O)CCCCCNC(=O)CCC(=O)N(O)CCCCCN [Deferoxamine] (1000 nM)"
  normalised response, %: 106
- molecule: "Cn1cnc2c(F)c(Nc3ccc(Br)cc3Cl)c(C(=O)NOCCO)cc21 [Selumetinib] (10000 nM)"
  normalised response, %: 75
- molecule: "Cc1sc2c(c1C)C(c1ccc(Cl)cc1)=N[C@@H](CC(=O)OC(C)(C)C)c1nnc(C)n1-2 [(+)JQ1] (10000 nM)"
  normalised response, %: 87.6
- molecule: "Nc1ncn([C@@H]2O[C@H](CO)[C@@H](O)[C@H]2O)c(=O)n1 [Azacitidine] (10000 nM)"
  normalised response, %: 103

###

System: MDA-MB-231
experimentalProtocol: normalised response (% of control), CellTiter-Glo; higher = more viable cells (100 = DMSO, 0 = benzethonium chloride kill control)
experimentalParameters: incubation time: 72 h

- compound: "CC(=O)O[C@@]12CO[C@@H]1C[C@H](O)[C@@]1(C)C(=O)[C@H](O)C3=C(C)[C@@H](OC(=O)[C@H](O)[C@@H](NC(=O)OC(C)(C)C)c4ccccc4)C[C@@](O)([C@@H](OC(=O)c4ccccc4)[C@H]21)C3(C)C [Docetaxel] (10 nM)"
  normalised response [%]: 53.4
- compound: "C[C@]1(O)C[C@@H](c2nc(-c3ccc4ccc(-c5ccccc5)nc4c3)c3c(N)nccn32)C1 [Linsitinib] (100 nM)"
  normalised response [%]: 93.9
- compound: "Nc1nc2[nH]cnc2c(=S)[nH]1 [Thioguanine] (100 nM)"
  normalised response [%]: 93.5
- compound: "CC1(C)CNc2cc(NC(=O)c3cccnc3NCc3ccncc3)ccc21 [Motesanib] (100 nM)"
  normalised response [%]: 101
- compound: "CC(=O)N(O)CCCCCNC(=O)CCC(=O)N(O)CCCCCNC(=O)CCC(=O)N(O)CCCCCN [Deferoxamine] (100 nM)"
  normalised response [%]: 93.2
- compound: "COc1cc2c(cc1O)CC[C@@H]1[C@@H]2CC[C@]2(C)[C@@H](O)CC[C@@H]12 [2-methoxyestradiol] (100 nM)"
  normalised response [%]: 102
- compound: "CC(=O)c1c(C)c2cnc(Nc3ccc(N4CCNCC4)cn3)nc2n(C2CCCC2)c1=O [Palbociclib] (100 nM)"
  normalised response [%]: 95.9
- compound: "Cc1ccc([N+](=O)[O-])cc1S(=O)(=O)N(C)/N=C/c1cnc2ccc(Br)cn12 [PIK-75] (100 nM)"
  normalised response [%]: 8.41
- compound: "COc1cc(F)c(F)c(Nc2ccc(I)cc2F)c1NS(=O)(=O)C1(C[C@H](O)CO)CC1 [Refametinib] (100 nM)"
  normalised response [%]: 83.6

###

Tested on: HDQ-P1
experimentalProtocol: normalised response (% of control), CellTiter-Glo; higher = more viable cells (100 = DMSO, 0 = benzethonium chloride kill control)
experimentalParameters: incubation time: 72 h
The following molecules are shown together with reported normalised response values.

- molecule: "CC1(C)CNc2cc(NC(=O)c3cccnc3NCc3ccncc3)ccc21 [Motesanib] (100 nM)"
  normalised response (%): 99.5
- molecule: "Cc1ccc([N+](=O)[O-])cc1S(=O)(=O)N(C)/N=C/c1cnc2ccc(Br)cn12 [PIK-75] (100 nM)"
  normalised response (%): 22.1
- molecule: "CC(=O)N(O)CCCCCNC(=O)CCC(=O)N(O)CCCCCNC(=O)CCC(=O)N(O)CCCCCN [Deferoxamine] (100 nM)"
  normalised response (%): 101
- molecule: "Cn1cnc2c(F)c(Nc3ccc(Br)cc3Cl)c(C(=O)NOCCO)cc21 [Selumetinib] (100 nM)"
  normalised response (%): 70.6
- molecule: "Oc1ncnc2[nH]ncc12 [Allopurinol] (100 nM)"
  normalised response (%): 101
- molecule: "Cc1sc2c(c1C)C(c1ccc(Cl)cc1)=N[C@@H](CC(=O)OC(C)(C)C)c1nnc(C)n1-2 [(+)JQ1] (100 nM)"
  normalised response (%): 89.5
- molecule: "CC1=C2C[C@H]3[C@@H](CC=C4C[C@@H](O)CC[C@@]43C)[C@@H]2CC[C@]12O[C@@H]1C[C@H](C)CN[C@H]1[C@H]2C [Cyclopamine] (100 nM)"
  normalised response (%): 99.9
- molecule: "Nc1nc2[nH]cnc2c(=S)[nH]1 [Thioguanine] (100 nM)"
  normalised response (%): 90.8
- molecule: "Cn1cc(C2=Nc3cc(NC(=O)C(N)C4CCCCC4)cc4c3C2=CNNC4=O)cn1 (centres undefined) (100 nM)"
  normalised response (%): 95.2
